- Measured target: T1, LILRB2-ECD-HIS (SinoBiological Cat #: 14132-H02H) (human, UniProt Q8N423 22-460)
- T1 construct: Bought protein; also called monomeric antigen LILRB2-ECD-HIS; not shown: His tag
- T1 sequence (Q8N423 other isoform, or with tags, fused parts or gaps H02H H02H): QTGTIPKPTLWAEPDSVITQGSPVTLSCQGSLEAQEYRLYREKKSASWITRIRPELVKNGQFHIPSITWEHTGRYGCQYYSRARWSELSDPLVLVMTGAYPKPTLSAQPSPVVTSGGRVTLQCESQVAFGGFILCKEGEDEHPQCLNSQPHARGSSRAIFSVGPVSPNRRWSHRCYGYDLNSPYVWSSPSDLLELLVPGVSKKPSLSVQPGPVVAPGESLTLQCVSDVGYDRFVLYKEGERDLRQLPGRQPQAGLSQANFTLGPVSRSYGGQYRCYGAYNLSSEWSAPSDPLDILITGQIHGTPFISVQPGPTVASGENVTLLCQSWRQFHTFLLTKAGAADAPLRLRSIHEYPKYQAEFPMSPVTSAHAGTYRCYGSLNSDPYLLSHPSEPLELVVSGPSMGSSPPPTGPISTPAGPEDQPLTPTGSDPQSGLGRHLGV
- Measurement description: SPR (Carterra), LILRB2-ECD-his
Test readout: pKd
pKd is defined as minus the log10 of a concentration measured in mol/L.

Past entries and their recorded results:
Binder: D2M002-103 (antibody, V domains shown, also called P212_F01) VH: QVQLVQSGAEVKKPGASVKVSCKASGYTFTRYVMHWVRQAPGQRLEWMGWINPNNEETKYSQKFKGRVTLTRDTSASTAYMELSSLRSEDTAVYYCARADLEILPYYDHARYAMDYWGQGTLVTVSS VL: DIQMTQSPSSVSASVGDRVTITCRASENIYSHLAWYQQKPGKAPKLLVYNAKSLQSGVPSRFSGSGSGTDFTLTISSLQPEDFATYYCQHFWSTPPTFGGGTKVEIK
Reported result: 9.78
--
Binder: D2M002-126 (antibody, V domains shown, Humanized and optimized variant of D2M002-026) VH: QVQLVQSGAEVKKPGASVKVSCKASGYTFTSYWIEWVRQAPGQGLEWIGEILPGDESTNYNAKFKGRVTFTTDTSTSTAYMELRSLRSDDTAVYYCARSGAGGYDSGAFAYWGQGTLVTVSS VL: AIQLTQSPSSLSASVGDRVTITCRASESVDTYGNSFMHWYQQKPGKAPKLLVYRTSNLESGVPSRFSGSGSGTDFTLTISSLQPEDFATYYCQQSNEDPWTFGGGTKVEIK
Reported result: 9.92
--
Binder: D2M002-002 (antibody, V domains shown, Hit from immunised mice; also called clone #2; anti-LILRB1/2 clone #2) VH: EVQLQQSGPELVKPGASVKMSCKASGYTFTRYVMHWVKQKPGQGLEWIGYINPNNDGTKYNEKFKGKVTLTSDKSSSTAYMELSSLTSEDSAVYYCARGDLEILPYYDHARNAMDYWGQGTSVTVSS VL: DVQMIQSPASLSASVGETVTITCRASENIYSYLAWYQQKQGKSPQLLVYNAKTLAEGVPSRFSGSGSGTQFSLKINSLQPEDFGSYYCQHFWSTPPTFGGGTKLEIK
Reported result: 9.36

Tell me measured pKd for D2M002-026 (antibody, V domains shown, Hit; also called clone #26) VH: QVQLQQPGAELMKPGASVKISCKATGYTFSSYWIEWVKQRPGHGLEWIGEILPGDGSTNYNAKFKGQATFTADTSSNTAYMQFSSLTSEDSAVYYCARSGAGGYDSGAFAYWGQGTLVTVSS VL: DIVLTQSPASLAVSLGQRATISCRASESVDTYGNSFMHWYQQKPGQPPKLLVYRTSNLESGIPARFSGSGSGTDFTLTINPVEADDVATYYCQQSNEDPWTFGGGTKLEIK please.
10.22
